Target System: NQO1 (DT-diaphorase, EC 1.6.5.5, human recombinant) (Homo sapiens)
Construct: purchased Sigma-Aldrich
Sequence (P15559 whole entry): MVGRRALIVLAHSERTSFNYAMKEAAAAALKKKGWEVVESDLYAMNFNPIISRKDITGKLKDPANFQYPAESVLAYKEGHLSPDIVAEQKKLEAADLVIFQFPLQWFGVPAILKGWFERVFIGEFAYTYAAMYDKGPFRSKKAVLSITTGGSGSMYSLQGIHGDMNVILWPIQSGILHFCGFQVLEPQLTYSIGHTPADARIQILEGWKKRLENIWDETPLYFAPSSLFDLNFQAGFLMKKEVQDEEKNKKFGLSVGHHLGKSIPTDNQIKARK
Assay Overview: NQO1 substrate NADPH recycling enzymatic assay
Format: biochemical
Conditions Used: compound 10 µmol/L, pH 7.4, 25 °C, absorbance at 340 nm
Quantity Kind: NQO1 activity (enzymatic conversion rate)
Give the number first and the unit second.

The following compounds have reported results that may help.
INSERT INTO results (compound, endpoint_value) VALUES
  ('O=C1C(Cl)=C(Oc2cccc3ccc(Cl)nc23)C(=O)c2cnccc21 [Compound 13d]', '633 ± 32 µmol NADPH/µmol NQO1/min'),
  ('Cc1ccc2c(n1)C(=O)C(Oc1cccc3ccc(C)nc13)=C(Cl)C2=O [Compound 12b]', '1437 ± 42 µmol NADPH/µmol NQO1/min'),
  ('O=C1C(Cl)=C(Oc2cccc3ccc(Cl)nc23)C(=O)c2ccccc21 [Compound 14d]', '1001 ± 43 µmol NADPH/µmol NQO1/min'),
  ('O=C1C(Cl)=C(Oc2cccc3ccc(N4CCCC4)nc23)C(=O)c2ccccc21 [Compound 14e]', '354 ± 22 µmol NADPH/µmol NQO1/min'),
  ('O=C1C(Cl)=C(Oc2cccc3cccnc23)C(=O)c2ccccc21 [Compound 14a]', '1282 ± 29 µmol NADPH/µmol NQO1/min');

If you can, please state the reported NQO1 activity (enzymatic conversion rate) value of Cc1ccc2c(n1)C(=O)C(Oc1cccc3ccc(N4CCOCC4)nc13)=C(Cl)C2=O [Compound 12f] .
210 ± 20 µmol NADPH/µmol NQO1/min

Check Cc1ccc2cccc(OC3=C(Cl)C(=O)c4ccncc4C3=O)c2n1 [Compound 13b] too.
1143 ± 36 µmol NADPH/µmol NQO1/min

Likewise for Cc1ccc2c(n1)C(=O)C(Oc1cccc3ccc(C=O)nc13)=C(Cl)C2=O [Compound 12c] ?
470 ± 22 µmol NADPH/µmol NQO1/min

---

Test system: MDA-MB-231 cells
Assay Overview: Cytotoxic activity, WST-1 assay, breast cancer MDA-MB-231
Type: cell-based, human
Conditions Used: HFF-1 vs MDA-MB-231
# SI (IC50 HFF-1/IC50 cancer line) MDA-MB-231 values compiled below
The response must contain the number and no unit.

INSERT INTO measurements (compound, target_system, endpoint_value) VALUES
  ('COc1cccc2c1C(=O)c1c(O)c3c(c(O)c1C2=O)C[C@@](O)(C(=O)CO)C[C@@H]3O[C@H]1C[C@H](N)[C@H](O)[C@H](C)O1 [Doxorubicin, doxorubicin, reference compound]', 'MDA-MB-231 cells', 0.19),
  ('O=Cc1ccc2cccc(OC3=C(Cl)C(=O)c4cccnc4C3=O)c2n1 [Compound 11c]', 'MDA-MB-231 cells', 0.73),
  ('O=C1C(Cl)=C(Oc2cccc3cccnc23)C(=O)c2ncccc21 [Compound 11a]', 'MDA-MB-231 cells', 0.89);

Look up SI (IC50 HFF-1/IC50 cancer line) MDA-MB-231: Cc1ccc2c(n1)C(=O)C(Oc1cccc3ccc(N4CCCC4)nc13)=C(Cl)C2=O [Compound 12e]
11.71

---

Recorded NQO1 activity (enzymatic conversion rate) for the following compounds
Target System: NQO1 (DT-diaphorase, EC 1.6.5.5, human recombinant) (Homo sapiens)
Construct: purchased Sigma-Aldrich
Assay Overview: NQO1 substrate NADPH recycling enzymatic assay
Format: biochemical
Conditions Used: compound 10 µmol/L, pH 7.4, 25 °C, absorbance at 340 nm
Description: The interaction between 1,4-quinone moiety of hybrid and NQO1 protein leads to reduction in quinone to hydroquinone and production of reactive oxide form (ROS). […] Compounds 11–14 (10 µmol/L) were tested as NQO1 substrates using the NADPH recycling assay according to the literature method. […] The enzymatic reaction was initiated by automatically dispensing the NADPH solution into the wells, and data were recorded at 10 s intervals for 5 min at 25 °C. […]
Report as a plain number; the unit µmol NADPH/µmol NQO1/min is understood.

Here is how some compounds turned out for NQO1 activity (enzymatic conversion rate).
INSERT INTO assay_data (compound, endpoint_value) VALUES
  ('Cc1ccc2cccc(OC3=C(Cl)C(=O)c4ccccc4C3=O)c2n1 [Compound 14b]', 1260),
  ('O=C1C(Cl)=C(Oc2cccc3cccnc23)C(=O)c2ncccc21 [Compound 11a]', 1399),
  ('O=Cc1ccc2cccc(OC3=C(Cl)C(=O)c4ccccc4C3=O)c2n1 [Compound 14c]', 550),
  ('Cc1ccc2cccc(OC3=C(Cl)C(=O)c4cccnc4C3=O)c2n1 [Compound 11b]', 1294),
  ('O=C1C(Cl)=C(Oc2cccc3ccc(N4CCOCC4)nc23)C(=O)c2cnccc21 [Compound 13f]', 143),
  ('O=C1C(Cl)=C(Oc2cccc3cccnc23)C(=O)c2cnccc21 [Compound 13a]', 1210);

Can you look up NQO1 activity (enzymatic conversion rate) on NQO1 (DT-diaphorase, EC 1.6.5.5, human recombinant) (Homo sapiens) for Cc1ccc2c(n1)C(=O)C(Oc1cccc3ccc(N4CCCC4)nc13)=C(Cl)C2=O [Compound 12e] ?
600

Param item: O=C1C(Cl)=C(Oc2cccc3ccc(N4CCOCC4)nc23)C(=O)c2ncccc21 [Compound 11f]
113

Item: O=C1C(Cl)=C(Oc2cccc3ccc(N4CCCC4)nc23)C(=O)c2cnccc21 [Compound 13e]
214

These data points were gathered from paper PMC9572083.
